B1: PDZK1 (parent)
chain: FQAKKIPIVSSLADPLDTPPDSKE

- Variants of: B1
- PROTOCOL_DETAILS: protein stability index of a GFP-peptide fusion (GPS, HEK-293T) (PSI 1-6); higher = more stable;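 also: lentivirally expressed fusions sorted by FACS into six bins by GFP to DsRed ratio, PSI derived from sequencing read proportions per bin multiplied by bin number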
- TEST_CONTEXT: c terminus: a fixed tail appended
Quick reference: protein stability index of the listed items.

{"columns": ["VARIANT_DESIGNATION", "protein stability index"],
 "data": [
  ["P20K", 3.88],
  ["P20V", 3.74],
  ["T18G", 3.62]
]}
